# assay_target: human TLR8 (Homo sapiens (Human))
# Sequence (Q9NR97 27-1041): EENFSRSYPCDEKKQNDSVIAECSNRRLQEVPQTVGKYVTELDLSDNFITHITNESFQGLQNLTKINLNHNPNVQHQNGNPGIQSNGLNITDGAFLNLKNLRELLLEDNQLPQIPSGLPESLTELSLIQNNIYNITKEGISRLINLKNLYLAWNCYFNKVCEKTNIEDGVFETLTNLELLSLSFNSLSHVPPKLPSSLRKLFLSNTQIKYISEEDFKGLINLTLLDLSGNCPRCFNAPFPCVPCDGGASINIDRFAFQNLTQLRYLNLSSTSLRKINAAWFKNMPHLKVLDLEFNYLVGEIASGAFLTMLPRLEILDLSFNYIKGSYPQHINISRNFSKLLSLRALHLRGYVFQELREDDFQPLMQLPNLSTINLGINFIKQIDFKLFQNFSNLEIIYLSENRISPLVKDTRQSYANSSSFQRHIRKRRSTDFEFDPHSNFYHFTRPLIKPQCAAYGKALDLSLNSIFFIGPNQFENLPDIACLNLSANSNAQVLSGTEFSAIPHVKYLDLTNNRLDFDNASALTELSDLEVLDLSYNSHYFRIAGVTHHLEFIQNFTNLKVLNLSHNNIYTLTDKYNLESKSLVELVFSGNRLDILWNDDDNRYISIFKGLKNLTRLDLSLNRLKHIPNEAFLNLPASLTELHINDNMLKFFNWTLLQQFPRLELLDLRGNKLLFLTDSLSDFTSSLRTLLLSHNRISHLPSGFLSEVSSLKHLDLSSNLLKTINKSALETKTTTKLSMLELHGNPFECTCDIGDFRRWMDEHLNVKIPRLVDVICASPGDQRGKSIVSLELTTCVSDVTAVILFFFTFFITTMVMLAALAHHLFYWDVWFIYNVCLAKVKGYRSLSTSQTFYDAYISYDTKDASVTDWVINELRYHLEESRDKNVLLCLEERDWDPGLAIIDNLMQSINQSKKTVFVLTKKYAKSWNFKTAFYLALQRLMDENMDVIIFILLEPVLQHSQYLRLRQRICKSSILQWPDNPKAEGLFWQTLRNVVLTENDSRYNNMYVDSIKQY
# protocol_summary: TLR8 inhibition reporter assay (HEK-Blue cells, SEAP reporter, R848 stimulation);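 note: compounds tested from 0.05 nM to 50 µM, 22 h at 37 °C, SEAP measured with HEK-Blue Detection, inhibition relative to agonist plus DMSO versus a known inhibitor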
# assay_setup: read-out: TLR8 IC50, HEK-Blue cells overexpressing human TLR8, R848 15.9 μM
pIC50: −log10 of the molar value.
experimental_endpoint: pIC50

Worked examples follow.
{"molecule": "Cc1cc(-c2[nH]c3ccc(C4CCN(C(=O)[C@H]5C[C@H]6CC[C@@H](C5)N6)CC4)cc3c2C(C)C)ccn1 [Example 580]", "assay_target": "human TLR8 (Homo sapiens (Human))", "reading": 7.27}
{"molecule": "Cc1cc(-c2[nH]c3ccc(C4CCN(C(=O)C5CC(=O)N(C)C5)CC4)cc3c2C(C)C)ccn1 (stereo not shown) [Example 618]", "assay_target": "human TLR8 (Homo sapiens (Human))", "reading": 6.97}
{"molecule": "CCN(CCO)CC(=O)N1CCC(c2ccc3[nH]c(-c4cc(C)nc(C)c4)c(C(C)C)c3c2)CC1 [Example 397]", "assay_target": "human TLR8 (Homo sapiens (Human))", "reading": 7.73}
{"molecule": "Cc1cc(-c2[nH]c3ccc(C4CCN(C(=O)c5ccc6ccccn6c5=O)CC4)cc3c2C(C)C)cc(C)n1 [Example 145]", "assay_target": "human TLR8 (Homo sapiens (Human))", "reading": 6.46}

[a] Cc1cc(-c2[nH]c3ccc(C4CCN(CC(=O)N(C)C5CCOC5)CC4)cc3c2C(C)C)cc(C)n1 (stereo not shown) [Example 289]
[b] Cc1cc(-c2[nH]c3ccc(C4CCN(C(=O)CN(C)C)CC4)cc3c2C(C)C)c(F)c(C)n1 [Example 588]
Ask: // compare measured pIC50, left a , right b , return larger State the label of the item chosen.
Reply: b
(b: 8.89, a: 7.77)
